Reported protein stability index values are given for each entry in this list.
Tested on: Saccharomyces cerevisiae
run description: protein stability index of tFT-peptide fusion (C-terminal peptide) (PSI (0-1 scale)); higher = more stable (slower turnover)
protocol conditions: genetic background: wild type; temperature: 30 C
The answer should be written as a number, with no unit following it.

Here's what some known entries look like.
INSERT INTO results (monomer_sequence, readout_type, recorded_result) VALUES
  ('RYRLSQRQESKK [MRX4 C-terminal 12 aa]', 'protein stability index', 0.682),
  ('WEHAMRSRRHKR [SWC3 C-terminal 12 aa]', 'protein stability index', 0.673),
  ('IVNDVWLPFQKW [DSD1 C-terminal 12 aa]', 'protein stability index', 0.701),
  ('DQFQLITQGIYS [PIK1 C-terminal 12 aa]', 'protein stability index', 0.717),
  ('EETEAQAEPVEA [RPS3 C-terminal 12 aa]', 'protein stability index', 0.663);

Lookup: Return reported protein stability index; argument: QKIDNALKMTGR [YDR102C C-terminal 12 aa]
Found: 0.705

Lookup: Continue with HSRASVQSHPQH [DAL80 C-terminal 12 aa]
Found: 0.699

Lookup: Again, but for LSFFGILKYCFL [TSC3 C-terminal 12 aa]
Found: 0.618

Lookup: Also need FVYKGVRKPKRN [SEN15 C-terminal 12 aa] , thanks.
Found: 0.778

Lookup: Next record, please: ECRARKASSNRS [YGR109W-A C-terminal 12 aa]
Found: 0.707
